Target: DRB10404 (DR4w14) (Homo sapiens, UniProt P01903+P01911, A100R/A169T/F76Y/I96L/K127E/L162R/M171V/N62H/P40V/Q125Y/R42H/S133A/S149N/S66Y/V209L/W38E)
Construct: used as sources of human HLA class II molecules; endogenous in cells; host or cells: BIN40 (EBV-transformed homozygous B cell line)
Assay: Class II peptide-binding assay, DR4w14;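 further: unlabeled peptides compete with a radiolabeled probe for binding to affinity-purified HLA-DR, neutral pH, class II amount titrated to bind a small fraction of label, IC50 approximates Kd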
Settings: read-out: DR4w14 nM; Table VIII, In IC50 Format
Square brackets hold non-standard residues; d marks the D form. Peptide text beside a SMILES is read from it.
Threshold-based label: IC50 under 100 nM gives true, IC50 not under 100 nM gives false.

Below are worked cases with known answers.
CC(C)C[C@H](NC(=O)[C@H](CCCCN)NC(=O)[C@H](CC(C)C)NC(=O)[C@@H](NC(=O)[C@H](CC(N)=O)NC(=O)[C@H](CCC(N)=O)NC(=O)[C@H](CCCCN)NC(=O)[C@@H](NC(=O)[C@H](Cc1ccc(O)cc1)NC(=O)[C@H](CCCCN)NC(=O)[C@@H]1CCCN1C(=O)[C@@H](N)CS)C(C)C)[C@@H](C)O)C(=O)N[C@@H](C)C(=O)N[C@H](C(=O)NCC(=O)O)[C@@H](C)O [Peptide 852.01]	false
C[C@H](NC(=O)[C@H](N)Cc1ccc(O)cc1)C(=O)N[C@@H](C)C(=O)N[C@@H](Cc1ccccc1)C(=O)N[C@@H](C)C(=O)N[C@@H](C)C(=O)N[C@@H](C)C(=O)N[C@@H](C)C(=O)N[C@H](C(=O)N[C@@H](CCCCN)C(=O)N[C@@H](C)C(=O)N[C@@H](C)C(=O)N[C@@H](C)C(=O)N[C@H](C)C(N)=O)[C@@H](C)O [Peptide 828.10] (H-[dY]AAFAAAATKAAA[dA]-NH2)	false
CC(C)C[C@H](NC(=O)[C@@H](NC(=O)[C@H](C)NC(=O)[C@H](C)NC(=O)[C@H](C)NC(=O)[C@H](CCCCN)NC(=O)[C@H](Cc1ccccc1)NC(=O)[C@H](C)NC(=O)[C@@H](C)N)[C@@H](C)O)C(=O)N[C@@H](CCCCN)C(=O)N[C@@H](C)C(=O)N[C@@H](C)C(=O)N[C@H](C)C(N)=O [Peptide 871.08] (H-[dA]AFKAAATLKAA[dA]-NH2)	true
C[C@H](NC(=O)[C@H](N)Cc1ccc(O)cc1)C(=O)N[C@@H](C)C(=O)N[C@@H](Cc1ccccc1)C(=O)N[C@@H](C)C(=O)N[C@@H](C)C(=O)N[C@@H](C)C(=O)N[C@@H](C)C(=O)N1CCC[C@H]1C(=O)N[C@@H](CCCCN)C(=O)N[C@@H](C)C(=O)N[C@@H](C)C(=O)N[C@@H](C)C(=O)N[C@H](C)C(N)=O [Peptide 828.06] (H-[dY]AAFAAAAPKAAA[dA]-NH2)	false
CC(C)C[C@H](NC(=O)[C@@H](NC(=O)[C@H](C)NC(=O)[C@H](C)NC(=O)[C@H](CCCCN)NC(=O)[C@H](C)NC(=O)[C@H](Cc1ccccc1)NC(=O)[C@H](CCCCN)NC(=O)[C@@H](C)N)[C@@H](C)O)C(=O)N[C@@H](CCCCN)C(=O)N[C@@H](C)C(=O)N[C@@H](C)C(=O)N[C@H](C)C(N)=O [Peptide 871.01] (H-[dA]KFAKAATLKAA[dA]-NH2)	true

Qu. # TODO verify IC50 < 100 nM strictly for this compound: CC(C)C[C@H](NC(=O)[C@@H](NC(=O)[C@@H](NC(=O)[C@H](CCC(N)=O)NC(=O)[C@H](CO)NC(=O)[C@H](CCC(N)=O)NC(=O)[C@H](Cc1ccccc1)NC(=O)[C@H](CCCCN)NC(=O)[C@H](C)NC(=O)[C@H](N)Cc1ccc(O)cc1)[C@@H](C)O)[C@@H](C)O)C(=O)N[C@@H](CCCCN)C(=O)N[C@@H](C)C(=O)N[C@@H](CCCCN)C(=O)N[C@@H](C(N)=O)[C@H](C)O [Peptide 858.02] (H-[dY]AKFQSQTTLKAK[dT]-NH2)
Ans. true
